rat EP4 receptor (Rattus norvegicus): recorded log10 of Ki for assorted compounds
Heads up, the numbers here are log10 of Ki in nM units.

Here's what some known entries look like.
- structure string: "C[C@H](NC(=O)c1cccc2ccn(Cc3ccc(-c4ccccc4)nc3)c12)c1ccc(C(=O)O)cc1"
  log10 of Ki: -0.09
- structure string: "O=C(NC[C@H]1CC[C@H](C(=O)O)CC1)c1cc(Cl)cc2ccn(Cc3ccc4ccccc4n3)c12"
  log10 of Ki: 0.15
- structure string: "O=C(NC[C@H]1CC[C@H](C(=O)O)CC1)c1cc(F)cc2ccn(Cc3cc4ccccc4cn3)c12"
  log10 of Ki: 0.32
- structure string: "O=C(NC[C@H]1CC[C@H](C(=O)O)CC1)c1cc(C(F)(F)F)cc2ccn(Cc3cc4ccccc4o3)c12"
  log10 of Ki: 0.32
- structure string: "C[C@H](NC(=O)c1cccc2ccn(Cc3ccc(N4CCCCC4)nc3)c12)c1ccc(C(=O)O)cc1"
  log10 of Ki: 0.41
- structure string: "O=C(NC[C@H]1CC[C@H](C(=O)O)CC1)c1cc(C(F)(F)F)cc2ccn(Cc3cccc(Cl)n3)c12"
  log10 of Ki: 1.20

# context switch: different compound, same log10 of Ki
Item O=C(NC[C@H]1CC[C@H](C(=O)O)CC1)c1cccc2ccn(Cc3cc4ccccc4o3)c12 has what recorded log10 of Ki?
0.08

---

# tgt: rat EP4 receptor (Rattus norvegicus, UniProt P43114)
# Sequence (P43114 whole entry): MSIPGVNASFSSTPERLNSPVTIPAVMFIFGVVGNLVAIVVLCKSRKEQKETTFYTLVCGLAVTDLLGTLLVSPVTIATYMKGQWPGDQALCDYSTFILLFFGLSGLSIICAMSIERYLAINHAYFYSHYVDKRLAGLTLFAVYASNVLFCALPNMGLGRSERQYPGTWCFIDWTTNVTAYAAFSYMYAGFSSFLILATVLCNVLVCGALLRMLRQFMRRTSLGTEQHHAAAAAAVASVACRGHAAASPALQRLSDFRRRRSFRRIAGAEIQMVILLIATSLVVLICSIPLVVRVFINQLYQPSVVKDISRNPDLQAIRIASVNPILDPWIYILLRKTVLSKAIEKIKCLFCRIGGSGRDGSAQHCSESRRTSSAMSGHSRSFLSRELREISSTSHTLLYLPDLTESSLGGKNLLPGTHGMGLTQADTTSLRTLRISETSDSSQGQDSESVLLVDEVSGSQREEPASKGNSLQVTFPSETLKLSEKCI
# method summary: In vivo rat EP4 receptor antagonistic activity (ONO-4819/LPS, plasma TNF-α)
# assay context: SD rat, oral, dose 0.01 mg/kg
value type: Inhibitory rate (%)
Give the number; % is assumed, so skip it.

// known answers, use as guide
- structure string: "O=C(O)c1ccc(CNC(=O)c2cc(C(F)(F)F)cc3ccn(CCOc4ccc(Cl)cc4)c23)cc1"
  readout unit: "%"
  Inhibitory rate (%): 71
- structure string: "O=C(NC[C@H]1CC[C@H](C(=O)O)CC1)c1cccc2ccn(Cc3cc4ccccc4o3)c12"
  readout unit: "%"
  Inhibitory rate (%): 88
- structure string: "O=C(O)c1ccc(CNC(=O)c2cc(C(F)(F)F)cc3ccn(Cc4csc(-c5ccccc5)n4)c23)cc1"
  readout unit: "%"
  Inhibitory rate (%): 52
- structure string: "O=C(NC[C@H]1CC[C@H](C(=O)O)CC1)c1cc(Cl)cc2ccn(Cc3ccc4ccccc4n3)c12"
  readout unit: "%"
  Inhibitory rate (%): 45
- structure string: "O=C(NC[C@H]1CC[C@H](C(=O)O)CC1)c1cc(Cl)cc2ccn(Cc3cc4ccccc4cn3)c12"
  readout unit: "%"
  Inhibitory rate (%): 88

Request body: readout Inhibitory rate (%), system rat EP4 receptor (Rattus norvegicus, UniProt P43114), query O=C(NC[C@H]1CC[C@H](C(=O)O)CC1)c1cc(C(F)(F)F)cc2ccn(Cc3ccc(-c4ccccc4)cn3)c12 . Return the value.
62

Repeat with O=C(O)c1ccc(CNC(=O)c2cc(Cl)cc3ccn(CCOc4ccc(Cl)cc4)c23)cc1
43

---

# tgt: EP4 receptor (Homo sapiens, UniProt P35408)
# Construct: endogenous in cells
# Sequence (P35408 whole entry): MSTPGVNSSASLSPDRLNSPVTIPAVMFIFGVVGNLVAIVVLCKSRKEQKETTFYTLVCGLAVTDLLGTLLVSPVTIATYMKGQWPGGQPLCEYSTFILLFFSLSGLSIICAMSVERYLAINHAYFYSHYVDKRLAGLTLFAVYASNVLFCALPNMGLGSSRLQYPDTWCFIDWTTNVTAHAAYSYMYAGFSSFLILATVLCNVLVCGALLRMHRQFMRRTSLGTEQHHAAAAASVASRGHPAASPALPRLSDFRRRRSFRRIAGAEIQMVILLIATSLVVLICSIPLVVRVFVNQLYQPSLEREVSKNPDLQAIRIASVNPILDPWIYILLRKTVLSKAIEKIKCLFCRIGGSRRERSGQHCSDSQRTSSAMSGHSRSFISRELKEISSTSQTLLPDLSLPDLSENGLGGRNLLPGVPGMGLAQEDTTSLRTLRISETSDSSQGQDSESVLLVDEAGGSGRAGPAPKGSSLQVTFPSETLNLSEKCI
# method summary: EP4 receptor antagonistic activity by measurement of cAMP amount in human Jurkat cells (HTRF)
# assay context: inhibition of cAMP, PGE2 100 nM
value type: pIC50
In textbook form, pIC50 equals minus log to base ten of the concentration in mol/L.

Reference set (3 entries):
- structure string: "O=C(O)c1ccc(CNC(=O)c2cc(Cl)cc3ccn(Cc4ccc5ccccc5n4)c23)cc1"
  pIC50: 10.43
- structure string: "O=C(NC[C@H]1CC[C@H](C(=O)O)CC1)c1cc(C(F)(F)F)cc2ccn(Cc3ccc4ccccc4n3)c12"
  pIC50: 9.82
- structure string: "O=C(NC[C@H]1CC[C@H](C(=O)O)CC1)c1cc(Cl)cc2ccn(Cc3ccc4ccccc4n3)c12"
  pIC50: 10.03

Now turn to the next molecule.
Fill in: pIC50 of C[C@H](NC(=O)c1cccc2ccn(Cc3ccc(-c4ccccc4)cc3)c12)c1ccc(C(=O)O)cc1 is ___
9.96
